Conditions: in acetone, 313.15 K
readout: solubility (mole fraction)
Just the number, please, no unit attached.

Challenge: Please indicate solubility (mole fraction) recorded for CCC[C@H](N)C(=O)O
Response given: 0.00106

====

Conditions: in methanol, 323.15 K
readout: solubility (mole fraction)
Just the number, please, no unit after it.

Challenge: Indicate its recorded solubility (mole fraction); the compound in question is CCC[C@H](N)C(=O)O
Response given: 0.00129

====

Details: in water, 313.15 K
readout: solubility (mole fraction)
// return just the number, without any unit appended

Challenge: State its solubility (mole fraction): CCC[C@H](N)C(=O)O
Response given: 0.0138

====

Conditions: in water, 318.15 K
readout: solubility (mole fraction)
Please give only the number in your answer, with no unit.

Challenge: Let me know recorded solubility (mole fraction) for CCC[C@H](N)C(=O)O , thanks.
Response given: 0.0139

====

Conditions: in methyl acetate, 318.15 K
readout: solubility (mole fraction)
A bare number is all that is needed in reply.

Challenge: Answer with the recorded solubility (mole fraction) for the compound listed here: CCC[C@H](N)C(=O)O
Response given: 0.000176

====

Conditions: in methanol, 298.15 K
readout: solubility (mole fraction)
No unit in the answer, only the number.

Challenge: Tell me measured solubility (mole fraction) for CCC[C@H](N)C(=O)O please.
Response given: 0.00104

====

Conditions: in n-butanol, 298.15 K
readout: solubility (mole fraction)
# respond with the number and nothing more

Challenge: Give the value of solubility (mole fraction) reported for the following: CCC[C@H](N)C(=O)O
Response given: 0.000962

====

Conditions: in acetonitrile, 323.15 K
readout: solubility (mole fraction)
// return just the number, without any unit appended

Challenge: Quick one: give measured solubility (mole fraction) for CCC[C@H](N)C(=O)O
Response given: 9.69e-05

====

Details: in n-pentanol, 313.15 K
readout: solubility (mole fraction)
I'd appreciate a reply containing only the number, no unit.

Challenge: Report solubility (mole fraction) for CCC[C@H](N)C(=O)O
Response given: 0.000744

====

Details: in methyl acetate, 323.15 K
readout: solubility (mole fraction)

Challenge: Indicate the recorded solubility (mole fraction) value for this compound: CCC[C@H](N)C(=O)O
Response given: 0.000216

====

Settings: in acetone, 323.15 K
readout: solubility (mole fraction)

Challenge: For the compound CCC[C@H](N)C(=O)O , give its measured solubility (mole fraction) value.
Response given: 0.00161

====

Details: in n-butanol, 308.15 K
readout: solubility (mole fraction)
I'd appreciate a reply containing only the number, no unit.

Challenge: Specify solubility (mole fraction) for CCC[C@H](N)C(=O)O and stop.
Response given: 0.0014

====

Settings: in methyl acetate, 308.15 K
readout: solubility (mole fraction)
Respond numerically, and do not add a unit to the figure.

Challenge: Tell us which solubility (mole fraction) value is on record for CCC[C@H](N)C(=O)O
Response given: 0.00012

====

Details: in n-butanol, 313.15 K
readout: solubility (mole fraction)
Field format: numeric only.

Challenge: Look up and state reported solubility (mole fraction) for CCC[C@H](N)C(=O)O
Response given: 0.00157

====

Details: in acetonitrile, 318.15 K
readout: solubility (mole fraction)
API doc: respond with a numeric literal and nothing else, no unit.

Challenge: Report measured solubility (mole fraction); entry is CCC[C@H](N)C(=O)O
Response given: 8.53e-05

====

Conditions: in n-propanol, 313.15 K
readout: solubility (mole fraction)
Write the value as a bare number.

Challenge: Please report solubility (mole fraction) for the following compound: CCC[C@H](N)C(=O)O
Response given: 0.00189

====

Conditions: in ethanol, 323.15 K
readout: solubility (mole fraction)
API doc: respond with a numeric literal and nothing else, no unit.

Challenge: Specify reported solubility (mole fraction) for the molecule shown: CCC[C@H](N)C(=O)O
Response given: 0.000283

====

Conditions: in n-propanol, 303.15 K
readout: solubility (mole fraction)
Answer with a bare number; do not write a unit.

Challenge: Dear colleague, please send me the reported solubility (mole fraction) for CCC[C@H](N)C(=O)O when you can.
Response given: 0.00115

====

Settings: in n-butanol, 318.15 K
readout: solubility (mole fraction)
Form rule: numeric answer, no unit written next to it.

Challenge: Recall and state the measured solubility (mole fraction) for CCC[C@H](N)C(=O)O .
Response given: 0.00175

====

Details: in acetone, 308.15 K
readout: solubility (mole fraction)

Challenge: Specify measured solubility (mole fraction) for CCC[C@H](N)C(=O)O .
Response given: 0.000828

====

Details: in methyl acetate, 313.15 K
readout: solubility (mole fraction)
Please give the numeric answer without any surrounding text.

Challenge: Answer with reported solubility (mole fraction) of CCC[C@H](N)C(=O)O
Response given: 0.00015

====

Conditions: in n-pentanol, 303.15 K
readout: solubility (mole fraction)
Please give the numeric answer without any surrounding text.

Challenge: Quote solubility (mole fraction) reported for CCC[C@H](N)C(=O)O please.
Response given: 0.000567

====

Conditions: in n-butanol, 323.15 K
readout: solubility (mole fraction)
Answer with a number only.

Challenge: Give the measured solubility (mole fraction) for CCC[C@H](N)C(=O)O
Response given: 0.0019

====

Conditions: in isopentanol, 318.15 K
readout: solubility (mole fraction)

Challenge: For CCC[C@H](N)C(=O)O , write its solubility (mole fraction).
Response given: 0.00151

====

Settings: in ethanol, 303.15 K
readout: solubility (mole fraction)
Output spec: single numeric token, no unit.

Challenge: Give the value of solubility (mole fraction) reported for the following: CCC[C@H](N)C(=O)O
Response given: 0.000186

====

Details: in acetone, 298.15 K
readout: solubility (mole fraction)
Write the number on its own, no unit after it.

Challenge: Using known records, supply solubility (mole fraction) for CCC[C@H](N)C(=O)O
Response given: 0.000515

====

Settings: in n-propanol, 323.15 K
readout: solubility (mole fraction)
The response must contain the number and no unit.

Challenge: Identify measured solubility (mole fraction) associated with CCC[C@H](N)C(=O)O
Response given: 0.00278

====

Settings: in ethanol, 298.15 K
readout: solubility (mole fraction)
I'd appreciate a reply containing only the number, no unit.

Challenge: Tell me measured solubility (mole fraction) for CCC[C@H](N)C(=O)O please.
Response given: 0.000171

====

Conditions: in ethanol, 313.15 K
readout: solubility (mole fraction)
Keep it simple and answer with nothing but the number.

Challenge: Indicate the recorded solubility (mole fraction) value for this molecule: CCC[C@H](N)C(=O)O
Response given: 0.000227

====

Details: in n-propanol, 298.15 K
readout: solubility (mole fraction)
API note: the answer field is a bare number with no unit suffix.

Challenge: Given CCC[C@H](N)C(=O)O , respond with its solubility (mole fraction).
Response given: 0.000859

====

Details: in isopentanol, 303.15 K
readout: solubility (mole fraction)
Enter a number only.

Challenge: For the molecule CCC[C@H](N)C(=O)O , give its reported solubility (mole fraction).
Response given: 0.000875

====

Conditions: in isopentanol, 308.15 K
readout: solubility (mole fraction)
Could you keep your reply to the number by itself?

Challenge: Supply recorded solubility (mole fraction) for CCC[C@H](N)C(=O)O here.
Response given: 0.00103

====

Details: in acetonitrile, 298.15 K
readout: solubility (mole fraction)
Lab note: record just the number, no unit beside it.

Challenge: Look up and state reported solubility (mole fraction) for CCC[C@H](N)C(=O)O
Response given: 5.93e-05

====

Conditions: in ethanol, 308.15 K
readout: solubility (mole fraction)
// keep it numeric: no unit symbol after the value

Challenge: Please supply the value of reported solubility (mole fraction) for the item CCC[C@H](N)C(=O)O
Response given: 0.000201

====

Settings: in n-propanol, 318.15 K
readout: solubility (mole fraction)
# respond with the number and nothing more

Challenge: Return value of solubility (mole fraction) for input CCC[C@H](N)C(=O)O , no commentary.
Response given: 0.00231

====

Conditions: in ethyl acetate, 308.15 K
readout: solubility (mole fraction)
Please respond with just the number, no unit label.

Challenge: Determine its reported solubility (mole fraction): CCC[C@H](N)C(=O)O
Response given: 0.000349

====

Conditions: in water, 323.15 K
readout: solubility (mole fraction)

Challenge: State its solubility (mole fraction) for this compound: CCC[C@H](N)C(=O)O
Response given: 0.0141

====

Details: in acetonitrile, 308.15 K
readout: solubility (mole fraction)
API doc: respond with a numeric literal and nothing else, no unit.

Challenge: Provide measured solubility (mole fraction) value, entry: CCC[C@H](N)C(=O)O
Response given: 7.54e-05

====

Settings: in ethyl acetate, 298.15 K
readout: solubility (mole fraction)
# answer = number (no unit)

Challenge: Give the value of solubility (mole fraction) reported for the following: CCC[C@H](N)C(=O)O
Response given: 0.000253

====

Conditions: in isopropanol, 323.15 K
readout: solubility (mole fraction)
Please give the numeric answer without any surrounding text.

Challenge: Determine its reported solubility (mole fraction): CCC[C@H](N)C(=O)O
Response given: 0.00249
